Target Of Assay: T1, CTLA-4 extracellular domain (PD-1 family member) (UniProt P16410 36-161, limits assumed)
T1 construct: extracellular domain; not shown: His tag
T1 sequence (looked up): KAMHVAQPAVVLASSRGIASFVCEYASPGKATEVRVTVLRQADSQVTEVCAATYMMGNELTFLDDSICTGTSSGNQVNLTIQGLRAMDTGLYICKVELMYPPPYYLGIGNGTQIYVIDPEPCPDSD
Method: ELISA, His-tagged extracellular domain on plate

{"Binder": "PD-1 antibody 1-33 (antibody, V domains shown, detection used an anti-human IgG secondary antibody) VH: QVQLVQSGAEVKKPGASVRVSCKASGYTLTSYYIHWVRQAPGQGLEWMGIINPRGATISYAQKFQGRVTMTRDTSTSTVYMELRNLKSEDTALYYCATAGIYGFDFDYWGRGTLVTVSS VL: QSALTQPASVSGSPGQSITISCTGTSNDVGGYNYVSWYQHHPGKAPKLIIYDVTNRPSGVSDRFSGSKSGNTASLTISGLLAEDEGDYYCSSYTIVTNFEVLFGGGTKLTV", "binding result": "no binding"}
{"Binder": "PD-1 antibody 1-28 (antibody, V domains shown, detection used an anti-human IgG secondary antibody) VH: EVQLVQSGAEVKKPGASVKVSCKASGYRFTSYGISWVRQAPGQGLEWMGWISAYNGNTNYAQKLQGRVTMTTDTSTNTAYMELRSLRSDDTAVYYCARDADYSSGSGYWGQGTLVTVSS VL: SYELTQPPSVSVSPGQTARITCSGDALPKQYAYWYQQKPGQAPVMVIYKDTERPSGIPERFSGSSSGTKVTLTISGVQAEDEADYYCQSADNSITYRVFGGGTKVTVL", "binding result": "no binding"}
{"Binder": "PD-1 antibody 1-17 (antibody, V domains shown, detection used an anti-human IgG secondary antibody) VH: QVQLQESGPGVVKPSGTLSLTCAISGGSIGSGGSIRSTRWWSWVRQSPGKGLEWIGEIYHSGSTNYNPSLKSRVTISLDKSRNHFSLRLNSVTAADTAVYYCARQDYGDSGDWYFDLWGKGTMVTVSS VL: NFMLTQPHSVSESPGKTVTISCTRSSGSIASNSVQWYQQRPGSSPTTVIYEDNQRPSGVPDRFSGSIDSSSNSASLTVSGLKTEDEADYYCQSSDSSAVVFGSGTKLTVL", "binding result": "no binding"}
{"Binder": "PD-1 antibody 3H4 (antibody, V domains shown, detection used an anti-human IgG secondary antibody; also called Murine 3H4) VH: QIQLQQSGPELVKPGASVKISCKASGYTFTDYYINWVKQKPGQGLEWIGWIYPGSVNTKYNEKFRGKATLTVDTSSSTAYIQLSGLTSEDTAVYFCARYSNWFFDVWGAGTAVTVS VL: DIVMTQSPSSLSASLGERVSLTCRASQEISGYLSWLQQKPDGTIKRLIYAASTLDSGVPKRFSGSRSGSDYSLSISSLESEDFADYYCLQYASYPYTFGGGTKLEIKR", "binding result": "no binding"}
